study_target: Histone deacetylase 1 (Homo sapiens)
Sequence (Q13547 whole entry): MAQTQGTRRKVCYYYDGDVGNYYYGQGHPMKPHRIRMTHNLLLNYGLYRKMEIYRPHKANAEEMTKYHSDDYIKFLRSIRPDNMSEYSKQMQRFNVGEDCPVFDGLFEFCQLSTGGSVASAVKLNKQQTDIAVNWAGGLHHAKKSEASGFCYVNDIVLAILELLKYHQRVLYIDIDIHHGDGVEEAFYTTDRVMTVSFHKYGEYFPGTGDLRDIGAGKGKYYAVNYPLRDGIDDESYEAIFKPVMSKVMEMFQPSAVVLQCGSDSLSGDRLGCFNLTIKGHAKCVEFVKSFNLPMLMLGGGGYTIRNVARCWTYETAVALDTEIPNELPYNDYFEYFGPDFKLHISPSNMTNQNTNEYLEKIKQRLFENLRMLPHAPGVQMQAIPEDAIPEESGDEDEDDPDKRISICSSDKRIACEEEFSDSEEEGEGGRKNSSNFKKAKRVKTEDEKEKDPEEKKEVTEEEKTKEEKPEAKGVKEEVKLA
method_description: Inhibition of purified human HDAC1 using Ac-Leu-Gly-(e-Ac)Lys-AMC pre-incubated for 18 hrs by fluorometric HDAC assay
measured_parameter: IC50 (µM)

1) CC1(C)C(=O)N(c2ccc(C#N)c(C(F)(F)F)c2)C(=S)N1c1ccc(C(=O)Nc2cc(-c3ccccc3)ccc2N)cc1
5.96

----------
study_target: Histone deacetylase 1 (Homo sapiens)
method_description: Inhibition of purified human HDAC1 using Ac-Leu-Gly-(e-Ac)Lys-AMC by fluorometric HDAC assay
pIC50: −log10 of the molar value.
measured_parameter: pIC50

1) CC1(C)C(=O)N(c2ccc(C#N)c(C(F)(F)F)c2)C(=S)N1CCCCCC(=O)NO
5.88
2) CC1(C)C(=O)N(c2ccc(C#N)c(C(F)(F)F)c2)C(=S)N1c1ccc(C(=O)Nc2ccccc2N)nc1
5.25
3) CC1(C)C(=O)N(c2ccc(C#N)c(C(F)(F)F)c2)C(=S)N1c1ccc(C(=O)Nc2ccccc2N)cn1
5.19
4) CC1(C)C(=O)N(c2ccc(C#N)c(C(F)(F)F)c2)C(=S)N1c1ccc(C(=O)Nc2cc(-c3cccs3)ccc2N)nc1
5.44
5) CC1(C)C(=O)N(c2ccc(C#N)c(C(F)(F)F)c2)C(=S)N1Cc1ccc(C(=O)Nc2ccccc2N)cc1
5.98
6) CC1(C)C(=O)N(c2ccc(C#N)c(C(F)(F)F)c2)C(=S)N1CCCC(=O)NO
4.35
7) CC1(C)C(=O)N(c2ccc(C#N)c(C(F)(F)F)c2)C(=S)N1c1ccc(C(=O)Nc2cc(-c3ccccc3)ccc2N)cn1
5.62

----------
study_target: UniProtKB Q13547
method_description: Inhibition of purified human HDAC1 using Ac-Leu-Gly-(e-Ac)Lys-AMC by fluorometric HDAC assay
Below is a list of entries, each paired with its recorded IC50 value.
measured_parameter: IC50 (µM)

1. CC1(C)C(=O)N(c2ccc(C#N)c(C(F)(F)F)c2)C(=S)N1c1ccc(C(=O)Nc2ccccc2N)cc1
1.33
2. CC1(C)C(=O)N(c2ccc(C#N)c(C(F)(F)F)c2)C(=S)N1c1ccc(C(=O)Nc2cc(-c3cccs3)ccc2N)cn1
11.1
3. CC1(C)C(=O)N(c2ccc(C#N)c(C(F)(F)F)c2)C(=S)N1CCCCC(=O)NO
3.09
4. CC1(C)C(=O)N(c2ccc(C#N)c(C(F)(F)F)c2)C(=S)N1CCCCCCC(=O)NO
0.99
5. CC1(C)C(=O)N(c2ccc(C#N)c(C(F)(F)F)c2)C(=S)N1c1ccc(C(=O)Nc2ccccc2N)c(F)c1
2.86
